- measured.on: IL-13 (Homo sapiens (Human), UniProt P35225 35-146, limits assumed)
- Sequence (P35225 35-146 limits assumed): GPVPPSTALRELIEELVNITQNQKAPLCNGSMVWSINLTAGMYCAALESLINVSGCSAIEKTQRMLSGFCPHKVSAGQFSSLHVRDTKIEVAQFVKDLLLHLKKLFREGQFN
- procedure.details: Biacore
reported.metric: koff (s⁻¹)
Only the number, expressed in s⁻¹, is required.

binder	koff [s⁻¹]
M463 (antibody, V domains shown, anti-IL-13, human IgG1) VH: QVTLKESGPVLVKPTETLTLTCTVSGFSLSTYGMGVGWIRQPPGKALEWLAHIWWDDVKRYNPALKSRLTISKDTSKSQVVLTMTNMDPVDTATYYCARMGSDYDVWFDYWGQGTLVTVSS VL: EIVLTQSPATLSLSPGERATLSCRASKSISKYLAWYQQKPGQAPRLLIYSGSTLQSGIPARFSGSGSGTDFTLTISSLEPEDFAVYYCQQQDLGPYTFGQGTKLEIK	6.3e-05
M445 (antibody, V domains shown, anti-IL-13, human IgG1) VH: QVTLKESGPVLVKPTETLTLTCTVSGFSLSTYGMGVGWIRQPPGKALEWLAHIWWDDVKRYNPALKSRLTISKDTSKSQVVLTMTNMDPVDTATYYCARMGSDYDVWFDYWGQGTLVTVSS VL: EIVLTQSPATLSLSPGERATLSCRASKSISKYLAWYQQKPGQAPRLLIYSGSTLQSGIPARFSGSGSGTDFTLTISSLEPEDFAVYYCQQHLLGPYTFGQGTKLEIK	0.000291
M482 (antibody, V domains shown, anti-IL-13, human IgG1; printed changes are the same as for M470) VH: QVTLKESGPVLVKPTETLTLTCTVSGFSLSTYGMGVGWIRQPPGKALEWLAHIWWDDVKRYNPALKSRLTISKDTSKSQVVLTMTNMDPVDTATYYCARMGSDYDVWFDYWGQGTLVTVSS VL: EIVLTQSPATLSLSPGERATLSCRASKSISKYLAWYQQKPGQAPRLLIYSGSTLQSGIPARFSGSGSGTDFTLTISSLEPEDFAVYYCQQHLDSPYTFGQGTKLEIK	0.0003

The binder identified as M476 (antibody, V domains shown, anti-IL-13, human IgG1) VH: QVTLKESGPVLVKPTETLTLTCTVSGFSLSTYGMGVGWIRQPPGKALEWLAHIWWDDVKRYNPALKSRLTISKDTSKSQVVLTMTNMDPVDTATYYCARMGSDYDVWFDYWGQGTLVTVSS VL: EIVLTQSPATLSLSPGERATLSCRASKSISKYLAWYQQKPGQAPRLLIYSGSTLQSGIPARFSGSGSGTDFTLTISSLEPEDFAVYYCQQHSVGPYTFGQGTKLEIK registered its koff at 0.000321

Per the records, this binder ( M1375 (antibody, V domains shown) VH: QVTLKESGPVLVKPTETLTLTCTVSGFSLSTYGQGVGWIRQPPGKALEWLAHIWWDDVKRYNPALKSRLTISKDTSKSQVVLTMTNMDPVDTATYYCARLGSDYDVWFDYWGQGTLVTVSS VL: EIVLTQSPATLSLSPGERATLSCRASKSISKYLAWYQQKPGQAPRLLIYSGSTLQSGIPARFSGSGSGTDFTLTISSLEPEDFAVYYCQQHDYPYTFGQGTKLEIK ) has koff equal to 2.7e-05

M464 (antibody, V domains shown, anti-IL-13, human IgG1) VH: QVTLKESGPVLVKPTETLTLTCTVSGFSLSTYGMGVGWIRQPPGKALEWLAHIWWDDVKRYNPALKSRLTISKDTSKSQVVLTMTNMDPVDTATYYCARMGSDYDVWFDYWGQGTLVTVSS VL: EIVLTQSPATLSLSPGERATLSCRASKSISKYLAWYQQKPGQAPRLLIYSGSTLQSGIPARFSGSGSGTDFTLTISSLEPEDFAVYYCQQHEWGPYTFGQGTKLEIK has a reported koff of 7.1e-05
